Reference source for all entries: patent US10519162B2

Quick reference for Emax among some compounds
- test_target: human mGlu2 receptor (Homo sapiens)
- Construct: expressed in transfected cells; host or cells: CHO cells
- Sequence (Q14416 19-872): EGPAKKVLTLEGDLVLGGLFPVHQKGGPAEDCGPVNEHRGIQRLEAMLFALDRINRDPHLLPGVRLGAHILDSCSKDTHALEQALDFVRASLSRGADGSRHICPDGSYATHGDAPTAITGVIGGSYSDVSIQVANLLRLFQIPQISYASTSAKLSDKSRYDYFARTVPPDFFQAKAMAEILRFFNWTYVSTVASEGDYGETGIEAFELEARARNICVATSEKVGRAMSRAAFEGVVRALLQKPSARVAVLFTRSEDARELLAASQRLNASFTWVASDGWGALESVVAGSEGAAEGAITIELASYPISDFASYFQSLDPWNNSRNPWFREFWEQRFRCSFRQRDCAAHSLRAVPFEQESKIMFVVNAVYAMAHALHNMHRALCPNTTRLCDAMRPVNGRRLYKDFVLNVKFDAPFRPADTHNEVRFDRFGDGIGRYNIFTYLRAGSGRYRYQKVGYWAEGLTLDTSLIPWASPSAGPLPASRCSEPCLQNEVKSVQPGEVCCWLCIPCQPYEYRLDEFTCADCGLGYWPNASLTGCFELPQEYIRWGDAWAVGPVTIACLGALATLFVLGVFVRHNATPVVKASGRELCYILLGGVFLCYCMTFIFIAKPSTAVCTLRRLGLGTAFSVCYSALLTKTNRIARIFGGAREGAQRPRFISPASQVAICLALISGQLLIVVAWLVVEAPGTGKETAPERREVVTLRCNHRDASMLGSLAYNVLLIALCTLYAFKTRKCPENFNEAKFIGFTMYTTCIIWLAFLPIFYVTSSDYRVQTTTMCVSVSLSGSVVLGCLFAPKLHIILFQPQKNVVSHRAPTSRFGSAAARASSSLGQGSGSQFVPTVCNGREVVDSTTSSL
- assay_protocol: [35S]GTPγS binding assay (mGluR2 negative allosteric modulation, glutamate ~EC80 60 μM)
- Assay type: biochemical
- conditions: maximal % inhibition relative to the control glutamate response (EC80 glutamate); read-out: GTPγS-hmGluR2 anGT Emax
// return numeric value only (unit: %, not printed)

compound	units	Emax
COc1cncc(C(=O)Nc2cnn3c2C(=O)N(c2ccc(Cl)c(Cl)c2)C[C@@H]3C)c1 [Co. No. 149]	%	107
Cc1cc(C(=O)Nc2cnn3c2C(=O)N(c2ccc(C(F)(F)F)cc2)C[C@@H]3C)no1 [Co. No. 72]	%	99
C[C@H]1CN(c2ccc(C(F)(F)F)cc2)C(=O)c2c(NC(=O)c3cccc(O)c3)cnn21 [Co. No. 144]	%	115
C[C@H]1CN(c2ccc(C(F)(F)F)cc2)C(=O)c2c(NC(=O)c3ccc(O)nn3)cnn21 [Co. No. 92]	%	101
Cc1cc(C(=O)Nc2cnn3c2C(=O)N(c2ccc(C(F)(F)F)c(Cl)c2)C[C@@H]3C)cc(C)n1 [Co. No. 172]	%	110

(Q) Quick one: Emax of COc1cncc(C(=O)Nc2cnn3c2C(=O)N(c2ccc(C(F)(F)F)cc2)C[C@@H]3C)c1 [Co. No. 32] ?
(A) 112

(Q) What value of Emax has been reported for the following compound? Cc1cc(N2C[C@H](C)n3ncc(NC(=O)c4cccnc4)c3C2=O)ccc1C(F)(F)F [Co. No. 145]
(A) 105

(Q) I'd like to know its Emax. The compound in question is COc1nc(N2C[C@H](C)n3ncc(NC(=O)c4ccc(N)nc4)c3C2=O)ccc1C(F)(F)F [Co. No. 33]
(A) 117
